- Measurement Target: hTAAR1 (Homo sapiens, UniProt Q96RJ0)
- Construct: Plasmid containing the cDNA for hTAAR1 was a generous gift from Hoffman-La Roche; expressed in transfected cells; host or cells: HEK293T (ATCC CRL-11268), transient transfection with Lipofectamine 2000
- Sequence (Q96RJ0 whole entry): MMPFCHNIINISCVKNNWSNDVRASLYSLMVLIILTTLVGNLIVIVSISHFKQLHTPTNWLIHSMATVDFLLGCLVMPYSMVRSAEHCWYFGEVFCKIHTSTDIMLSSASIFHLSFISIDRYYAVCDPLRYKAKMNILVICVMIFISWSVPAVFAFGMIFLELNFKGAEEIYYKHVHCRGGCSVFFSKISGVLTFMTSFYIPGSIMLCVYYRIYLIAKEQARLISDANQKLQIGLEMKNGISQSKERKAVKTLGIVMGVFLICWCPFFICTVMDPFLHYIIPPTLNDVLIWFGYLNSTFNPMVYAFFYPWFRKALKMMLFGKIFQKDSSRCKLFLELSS
- Test Description: BRET-based cAMP assay in HEK293 cells transfected with hTAAR1 and cAMP biosensor
- Format: cell-based
- Condition Label: cAMP BRET, HEK293, dose-response 1 nM to 10 μM, IBMX 200 µM
Property Measured: pEC50
// scale note: pEC50 = -log10(conc_M); give the bare number

Find pEC50 (hTAAR1 (Homo sapiens, UniProt Q96RJ0)) for the entry "N=C(N)N/N=C/c1c(Cl)cccc1Cl" 8.00

Give the reported pEC50 for "NCCc1ccccc1" (system: hTAAR1 (Homo sapiens, UniProt Q96RJ0)). 6.69

Under hTAAR1 (Homo sapiens, UniProt Q96RJ0): pEC50 value of "N=C(N)NC(=O)Cc1c(Cl)cccc1Cl" ? 7.70
